All values here come from the Human Domainome abundance scans (Beltran et al. 2025).

B1: POU domain, class 6, transcription factor 2, residues 609 to 663; numbered along this chain, P78424 (parent)
chain: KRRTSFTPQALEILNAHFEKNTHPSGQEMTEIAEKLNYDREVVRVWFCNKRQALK

variants of: B1; experiment: abundance fitness (aPCA) (normalised: wild type 0, dead -1); higher = more abundant; growth selection in yeast, the domain comes from the species named; details: Homo sapiens

sequence_variant: A53M
abundance fitness: 0.034
--
sequence_variant: C48I
abundance fitness: -0.475
--
sequence_variant: W46K
abundance fitness: -0.983
